tested on: KM12 colon; assay: NCI tumour cell line growth inhibition, 48 h
quantity_name: TGI

Field: example entries. Status: answers known.
COC(=O)c1c(O)ccc2c1c1c(n2Cc2ccc(Cl)cc2Cl)C(=O)c2ccccc2C1 :: > 100 µM
O=C1NC(=S)NNC12c1ccccc1-c1ccccc12 :: > 10 µM
CC(C)(C)C(=O)OC(N)/C=C/c1ccccc1 (centres undefined) :: > 100 µM
O=C1[C@@H]2C3c4ccccc4C([C@@H]2C(=O)N1c1ccccc1)S3(=O)=O :: > 100 µM
C[C@@]12CCC3C1C=C1C(=O)c4cc(O)ccc4C(=O)[C@]1(O2)[C@@]3(C)C=O :: 18.1 µM

Query TGI for "CC1(C)OCCn2c1nc1c(N3CCOCC3)nc(-c3cnc(N)nc3)nc12" > 100 µM

Tell me measured TGI for "O=C(CCc1cc(O)cc(O)c1)NCCc1cc(O)cc(O)c1" please. > 100 µM

Report measured TGI; entry is "COc1ccc(-c2oc(=O)ccc2-c2cc(OC)c(OC)c(OC)c2)cc1F" > 100 µM

Could you please provide reported TGI for "CC1(C)OC(=C(C#N)C#N)C(C#N)=C1/C=C/c1ccncc1" ? Thanks! 9.14 µM

Please indicate TGI recorded for "O=C1/C(=C/c2ccccc2)NC(=S)N1CN1CCOCC1" > 100 µM

Recall and state the measured TGI for "Cc1ccc(Cl)cc1Nc1nc(C(F)(F)F)ccc1C(=O)N1CCN(c2cccc(Cl)c2)CC1" . > 100 µM

Quote TGI reported for CC(C)(C)[Si](C)(C)OC1/C(=C/C#N)C(n2ccc(=O)[nH]c2=O)OC1CO (centres undefined) please. > 100 µM

Note TGI for the compound shown: CCC1C2C=CC(CC2)N1S(=O)(=O)c1ccc(C)cc1 (centres undefined) > 100 µM

// fetch TGI given entry O=C1CC(C[C@H](O)C2CCCCC2O)CC(=O)N1Cc1ccccc1 (some centres undefined) > 100 µM

For the compound "C[C@H]1Oc2cc(cnc2N)-c2c(nn(C)c2C#N)CN(C)C(=O)c2ccc(F)cc21" , give its measured TGI value. > 100 µM

Provide one value: measured TGI of "Cn1cc(C2=C(c3cn(C)c4cc(C(N)=O)ccc34)C(=O)NC2=O)c2ccccc21" 6.17 µM

Give me measured TGI, please, for this compound: Cc1cn(CCCCCOC(=O)NC(CCCN=C(N)N)C(=O)O)c(=O)[nH]c1=O (centres undefined) > 100 µM

Entry "CC(C)(C)c1cc(C(=O)/C=C/C=C/c2ccccc2)cc(C(C)(C)C)c1O" needs its TGI filled in; supply it. > 92.7 µM

Give the value of TGI reported for the following: CC(C)(C)c1cc(C(CO)OCCOCCO)cc(C(C)(C)C)c1O (centres undefined) > 100 µM

====

This listing pairs compounds with measured TGI.
system: HS 578T breast; test: NCI tumour cell line growth inhibition, 48 h

Example entries and their recorded answers appear below.
CN(CCN(C)C(=S)NN)C(=S)NN :: > 100 µM
O=C(O)CCN(CCC(=O)O)c1ccc(/C=C2\SC(=S)NC2=O)cc1 :: > 100 µM
Cn1c(N)c2c3c(sc2nc1=O)CCCC3 :: > 75 µM

Please list TGI recorded for the compound "COc1ccc(CCN=C2OCc3ccccc32)cc1OC" > 100 µM
